Below is a list of entries, each paired with its recorded CREATININE value.
species: Rattus norvegicus; assay: DrugMatrix - Regimen: Daily Repeat; type: toxicity, organism-based, Sprague-Dawley; set-up: regimen Daily Repeat, gender Male, age 6-8 weeks; conditions: in vivo, po, 0 mg/kg, 120 h, tissue Plasma, route oral GAVAGE, dose level Control, time 5 day, vehicle .5 % CMC

MOLECULE	UNITS_LABEL	CREATININE
C[C@]12CC[C@@H]3c4ccc(O)cc4CC[C@H]3[C@@H]1C[C@@H](O)[C@@H]2O	mg/dL	0.18
COc1ccccc1[N+](=O)[O-]	mg/dL	0.18
CN1CCN(C2=Nc3cc(Cl)ccc3Nc3ccccc32)CC1	mg/dL	0.6
NC(=O)N1c2ccccc2CC(=O)c2ccccc21 [OXCARBAZEPINE]	mg/dL	0.22
CCn1cc(C(=O)O)c(=O)c2cc(F)c(N3CCNC(C)C3)c(F)c21 (centres undefined)	mg/dL	0.47
CN(C)C(=O)C(CCN1CCC(O)(c2ccc(Cl)cc2)CC1)(c1ccccc1)c1ccccc1 [LOPERAMIDE]	mg/dL	0.19
CN1C(=O)CN=C(c2ccccc2)c2cc([N+](=O)[O-])ccc21	mg/dL	0.58
CCC1=C(C)CN(C(=O)NCCc2ccc(S(=O)(=O)NC(=O)N[C@H]3CC[C@H](C)CC3)cc2)C1=O [GLIMEPIRIDE]	mg/dL	0.19
CCOc1nc2cccc(C(=O)O)c2n1Cc1ccc(-c2ccccc2-c2nnn[nH]2)cc1	mg/dL	0.21

----------
Reported ERYTHROCYTE COUNT is given for each of the following molecules.
species: Rattus norvegicus; assay: DrugMatrix - Regimen: Daily Repeat; format: toxicity, organism-based, Sprague-Dawley; parameters: regimen Daily Repeat, gender Male, age 6-8 weeks; details: in vivo, po, 0 mg/kg, 72 h, tissue Blood, route oral GAVAGE, dose level Control, time 3 day, vehicle 100 % WATER
MEASURE: ERYTHROCYTE COUNT (x10E6/uL)

MOLECULE	UNITS_LABEL	ENDPOINT_RESULT
O=c1[nH]c(=O)n(C2CCCO2)cc1F (stereo not given) [TEGAFUR]	x10E6/uL	5.7
CNC1=Nc2ccc(Cl)cc2C(c2ccccc2)=[N+]([O-])C1 [CHLORDIAZEPOXIDE]	x10E6/uL	5.71
CN(C)C(=O)Oc1cccc([N+](C)(C)C)c1.[Br-] [NEOSTIGMINE BROMIDE]	x10E6/uL	5.38
CCCC(C)C1(CC)C(=O)NC(=O)NC1=O (stereo not given) [PENTOBARBITAL]	x10E6/uL	5.38
CCN(C(C)=O)c1cccc(-c2ccnc3c(C#N)cnn23)c1 [ZALEPLON]	x10E6/uL	5.52

----------
species on record: Rattus norvegicus; assay: DrugMatrix - Regimen: Daily Repeat; format: toxicity, organism-based, Sprague-Dawley; design: regimen Daily Repeat, gender Male, age 6-8 weeks; settings: in vivo, ip, 10 mg/kg, […], tissue Blood, route intraperitoneal, dose level High, time 14 day, vehicle 100 % SALINE

SEQUENCE_CODE	ABSOLUTE SEGMENTED NEUTROPHIL [cells/µL]
COBALTOUS CHLORIDE	1320

----------
organism: Rattus norvegicus; assay: DrugMatrix - Regimen: Daily Repeat; assay type: toxicity, organism-based, Sprague-Dawley; parameters: regimen Daily Repeat, gender Male, age 6-8 weeks; details: in vivo, po, 0 mg/kg, 72 h, tissue Plasma, route oral GAVAGE, dose level Control, time 3 day, vehicle 100 % WATER

MOLECULE	ASPARTATE AMINOTRANSFERASE [u/L]
CCCC(C)C1(CC)C(=O)NC(=O)NC1=O (stereo not given)	84
CNC1=Nc2ccc(Cl)cc2C(c2ccccc2)=[N+]([O-])C1 [CHLORDIAZEPOXIDE]	89
C#Cc1cccc(Nc2ncnc3cc(OCCOC)c(OCCOC)cc23)c1	86.17
CCN(CC)CCOC(=O)C1(C2CCCCC2)CCCCC1	66
CCN(C(C)=O)c1cccc(-c2ccnc3c(C#N)cnn23)c1	106.17
